# Test system: Canis familiaris
# procedure text: Activity duration index was evaluated in mixed-breed or Beagle dogs after intravenous administration.
# Assay type: functional, Canis lupus familiaris
Threshold check on ADI: strictly below 1 is Met; on or above 1 is Not met.

- compound: "CC(C)N(CCC(CCN(C(C)C)C(C)C)(C(N)=O)c1cccc(C(F)(F)F)c1)C(C)C"
  category label: "Not met"
- compound: "CC(C)N(CCC(CCN1CCCCCC1)(C(N)=O)c1ccccc1F)C(C)C (configuration not stated)"
  category label: "Met"
- compound: "CC(C)N(CCC(CCN(C(C)C)C(C)C)(C(N)=O)c1ccccc1Br)C(C)C"
  category label: "Not met"
- compound: "CC(C)N(CCC(CCN1CCCCC1)(C(N)=O)c1ccccc1)C(C)C (configuration not stated)"
  category label: "Met"
- compound: "CC(C)N(CCC(CCN(C(C)C)C(C)C)(C(N)=O)c1ccc(F)cc1)C(C)C"
  category label: "Not met"
- compound: "CC(C)N(CCC(CCN(C)C1CCCCC1)(C(N)=O)c1ccccc1)C(C)C (configuration not stated)"
  category label: "Not met"
- compound: "CC(C)N(CCC(CCC1CCCCC1)(C(N)=O)c1ccccc1Cl)C(C)C (configuration not stated)"
  category label: "Not met"

All figures here come from ChEMBL document CHEMBL1121621.
